Measured yeast fitness of individual entries
B1: tRNA (parent)
chain: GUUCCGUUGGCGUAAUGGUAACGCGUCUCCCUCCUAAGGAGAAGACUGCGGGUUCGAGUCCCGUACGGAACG

Variants of: B1
Assay: yeast fitness relative to wild type (ratio to wild type); higher = fitter; tRNA-Arg(CCU), competitive growth, 37 C, YPD
This sample holds only a part of the variants without activity.
Reply with the value as a number alone.

// solved cases for yeast fitness follow
mutation_label="C5G U26C A70G" assay_endpoint="yeast fitness" observed_measurement=0.632
mutation_label="C5U C11A A21G A40U" assay_endpoint="yeast fitness" observed_measurement=0.68
mutation_label="C30A U53G C60G C62A A70U" assay_endpoint="yeast fitness" observed_measurement=0.515
mutation_label="G56C A57U C60U" assay_endpoint="yeast fitness" observed_measurement=0.698

What the record says about C5A U59C : yeast fitness is 0.807

What the record says about G25A C27U A69C : yeast fitness is 0.73

What the record says about G48A A57U : yeast fitness is 0.649

What the record says about U2A A14C A36G C66U : yeast fitness is 0.639
